method.summary: soluble on expression in E. coli; label from the status in PepcDB or PDB records
readout.kind: soluble on expression in E. coli

// fetch soluble on expression in E. coli given entry MGSDKIHHHHHHMIKVAVVGTVGIPACYGGFESLVENLTSYTSNKIEYDVFCSSKSYTNKRSHYNGAQLSYIPLNANGVQSIFYDIISLIFCIFKKPDVTLVLGVSGCLFLPVYRLLSKSKIVTNIDGLEWKRDKWSKWAKKFLKFSEYMAVKFSDVVITDNKAIGDYVNAEYSKDNVVIAYGGDHAIIEGKHVGPEQDYYLSLCRIEPENNVQMILNAFSKSQHKLKFVGNWNSSEFGRKLKREFSDQPNIDIVDPIYDVNQLFKLRSECKGYVHGHSAGGTNPSLVEAMHFEKTIFAFDCNFNRYTTEDKAVYFSSSKELNDKLTEVTKDELAVISTDMKQIADRRYTWKVINHMYEETYL
not soluble

// fetch soluble on expression in E. coli given entry MSLARARMKERGVEVSDIAELVFFLQKKYHPDLTIDECTLNVNRVLAKREVQNAILTGIELDVLAEQKKLSEPLQTMLEIDESLYGVDEVLAFSIVNIYGSIGFTNYGYIDKEKPGILKRLNDKSTGECHTFLDDIVGAISAAASSRLAHREGHHHHHH
not soluble

// fetch soluble on expression in E. coli given entry MTFLLKSCSTFFEKFCCCCKKYESEWNTQLESISLFAARRGFTDGEPYLILFGLCPNANKTFIVSENKLSDSNICLGDFLVACSDSPKNLKNFKKVPYPLDVTVEGDYAIISYSSMEAIKDISGILIFQTTDFGPIRSLNQNLDLDEYNITVHATGVSASGHVIELRAKAQPASNYRNSSVYENPSFLDDLSDEPLEIKKTISNNSLDGFSMEQLIQQLPTLELGEAENSVRVPQNLSAPRLMKAFVYSVHQYPHTKFHFLWICDIMEKSILKLPQYDFELGYFFEGIFKQKSNGKWECEQYNNKIEPLINGTVVINEYNGNEKVELTTTVTNYKPKNNTRKWPEVEAKYLGVVYDRHNKLPKNCEGQKVEVQMMKIDKEQYGWVITDILNE
not soluble

// fetch soluble on expression in E. coli given entry MFYEKIQTPAYILEEDKLRKNCELLASVGEKSGAKVLLALKGFAFSGAMKIVGEYLKGCTCSGLWEAKFAKEYMDKEIHTYSPAFKEDEIGEIASLSHHIVFNSLAQFHKFQAKTQKNSLGLRCNVEFSLAPKELYNPCGRYSRLGIRAKDFENVDLSTIEGLHFHALCEESAGALEAVLKVFEEKFGKWIGQMKWVNFGGGHHITKKGYDVEKLIALCKNFSDKYGVQVYLEPGEAVGWQTGNLVASVVDIIENEKQIAILDTSSEAHMPDTIIMPYTSEVLNARILATRENEKISDLKESEFSYLLTGNTCLAGDVMGEYAFDKKLKIGDKIVFLDQIHYTIVKNTTFNGIRLPNLMLLNAKNELQMIREFSYKDYSLRN
not soluble

====

method.summary: soluble on expression in E. coli; label from the status in PepcDB or PDB records
readout.kind: soluble on expression in E. coli

// fetch soluble on expression in E. coli given entry MRGSHHHHHHGSVEYTPWLIAGLGNPGNKYYGTRHNVGFEMVDRIAAEEGITMNTEQSKSLLGIGSIGEVPVLVVKPQSYMNYSGEAIGPLAAYYQVPLRHILLIYDDTSLPNGVLRLQKKGGHGRHNGLQNVIEHLDGRREFPRLSIGIGSPPGKMDPRAFLLQKFSSEERVQIDTALEQGVDAVRTLVLKGFSGSTERFNLVQKYKFHRV
soluble

// fetch soluble on expression in E. coli given entry MAHHHHHHMKSMRAVTMRAFGDVDVMHISEVTGVSLSRPSDVIIRVMAAGVNRADVSQRQGHYPPPKGSSEILGMEVSGVVEKVGENVKRFKEGDRVMALLTGGGYAEMAVAHEGSVMKIPEGYSFVEAAAIPEAFLTAWQALKLHGNLQKGQHMLFHAGASGVGTAALQLAEKYFRATAIATCSSGKVEFCKRFAKFVVDRSPDASGKCFSSKVRDAVKGETVNLIVDPVVGGTYLQEDGEVLAQDGKVVLLAFMGGAKVSLDVMPFFRKRASVIFSKLRDQTDEYKEALVRSFEEEVIPYMTRREIVPVVQCTYALEEVAAAHKLMENNKSNGKVILTVGKAE
soluble

====

method.summary: soluble on expression in E. coli; label from the status in PepcDB or PDB records
readout.kind: soluble on expression in E. coli

# example entries with known answers
// fetch soluble on expression in E. coli given entry SKREMPSMYPQAKGILSALKEKGIEMAIASRSPTSDIANTFLDKLNIKPMFVAKEIYSSWSHKTEHFQKIHTRTGVPFTAMLFFDDEDRNIKSVSKMGVTSILVGDGVTLGAFRQGLTEFTQN
not soluble

// fetch soluble on expression in E. coli given entry MGSSHHHHHHGSLSKQIPLGIYEKALPAGECWLERLQLAKTLGFDFVEMSVDETDERLSRLDWSREQRLALVNAIVETGVRVPSMCLSAHRRFPLGSEDDAVRAQGLEIMRKAIQFAQDVGIRVIQLAGYDVYYQEANNETRRRFRDGLKESVEMASRAQVTLAMEIMDYPLMNSISKALGYAHYLNNPWFQLYPDIGNLSAWDNDVQMELQAGIGHIVAVHVKDTKPGVFKNVPFGEGVVDFERCFETLKQSGYCGPYLIEMWSETAEDPAAEVAKARDWVKARMAKAGMVEAA
soluble

// fetch soluble on expression in E. coli given entry MILVFLGPPGAGKGTQAKRLAKEKGFVHISTGDILREAVQKGTPLGKKAKEYMERGELVPDDLIIALIEEVFPKHGNVIFDGFPRTVKQAEALDEMLEKKGLKVDHVLLFEVPDEVVIERLSGRRINPETGEVYHVKYNPPPPGVKVIQREDDKPEVIKKRLEVYREQTAPLIEYYKKKGILRIIDASKPVEEVYRQVLEVIGDGN
soluble

// fetch soluble on expression in E. coli given entry MAHHHHHHMDGQSSSPAEPASGSVALLYDYTTANDAPVEVHRAAAGRLACSYRAECLAIENGFGHLMPPCLGTSQSPTRILVATDSLSAIEAFRCPLAMRDRVTEAILIMPLSLVKRGRPVEFIFSPSHCGIPRNEATDEEATISISLPQEGIPIWHVDFLTAVKRLCWKEFQEEAEGAYTARQAFVGVARTPFLISSQK
not soluble

// fetch soluble on expression in E. coli given entry SDVNECLTIPEACKGEMKCINHYGGYLCLPRSAAVINDLHGEGPPPPVPPAQHPNPCPPGYEPDDQDSCVD
soluble

Continuing:
// fetch soluble on expression in E. coli given entry MANSLRNVNDYDPFKYRPSYFDLEAPTESFALGKFVDAIEVKQMALDAFSESSMVSIATSQLPKTAYTATSFIESEYYSFPYLFNDQKYYWDYFDYKIPAADFAVLELELDLNNQQDQQIKDHFIDPAIKAYKQLGDSTGLFATKPLTEYQNDTHYLLGYPVVPTDHTQLWECKQGAERFSYGYFYSNMARLTKNLRQGDPNAGSKTHIEYSNELLDKDSMDQGIVRFSTFLGANINYHDYDYRQQGYGLTLTDTNLPGGSSGSLVFNQDKKISSIYSAATESDSVGYAQLLRTPRDVNGISVVSQSYDLIFGDSNTKRYYAMFAKKQQTHLYSEILKSTDEQYRYVVDKQFN
soluble

// fetch soluble on expression in E. coli given entry SFRKGKKRHSSSSSQSSEISTKSKSVDSSLGGLSRSSTVASLDTDSTKSSGQSNNNSDTCAEFRIKYVGAIEKLKLSEGKGLEGPLDLINYIDVAQQDGKLPFVPPEEEFIMGVSKYGIKVSTSDQYDVLHRHALYLIIRMVCYDDGLGVGKSLLALKTTDASNEEYSLWVYQCNSLEQAQAICKVLSTAFDSVLTSEKP
soluble

====

method.summary: soluble on expression in E. coli; label from the status in PepcDB or PDB records
readout.kind: soluble on expression in E. coli

// fetch soluble on expression in E. coli given entry MVKRNKVIKQQSCPLIDTINVISRKWLLLVLNTIGNEGKLGFNSILNSIDDISPKALSDVLKTMEEMGLVKKVIVKSSPPRVEYSLTYEGKKLRKAVIPLFKWAAEHTGHYECPILQSNKLNKEEYS
soluble

// fetch soluble on expression in E. coli given entry LVPEAPAPFEEPLPPEATDQWQDRALCAQTDPEAFFPEKGGSTREAKKICMGCEVRHECLEYALAHDERFGIWGGLSERERRRLKRGII
soluble

// fetch soluble on expression in E. coli given entry MSRPAASLGLMRMIEAVPDRLDGSPRQLRRFWSDEFKETAVEQACQPGVNMSAVARQIGILPSQLYRWRRELLASDKPGEAPAAVDPQSVAPDANPVVEIVIDGIVVRADRHIEEAHLQRVIRAVRSALEHHHHHH
soluble
